study-system: T1, human CD47 (human, UniProt Q08722 19-139)
T1 construct: extracellular domain; also called CD47 ECD
T1 sequence (Q08722 19-139 limits assumed): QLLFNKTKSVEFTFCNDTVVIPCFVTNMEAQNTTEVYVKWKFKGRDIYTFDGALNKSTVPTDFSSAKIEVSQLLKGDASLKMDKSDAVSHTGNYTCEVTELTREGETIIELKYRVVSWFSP
assay-overview: SPR as in Example 1

{"binder": "SIRP-α D1 variant fused to Fc variant, SEQ ID NO: 114 (Fc fusion) EEELQIIQPDKSVLVAAGETATLRCTITSLFPVGPIQWFRGAGPGRVLIYNQRQGPFPRVTTVSDTTKRNNMDFSIRIGNITPADAGTYYCIKFRKGSPDDVEFKSGAGTELSVRAKPSERKSSVECPPCPAPPVAGPSVFLFPPKPKDTLMISRTPEVTCVVVDVSHEDPEVQFNWYVDGVEVHNAKTKPREEQFASTFRVVSVLTVVHQDWLNGKEYKCKVSNKGLPSSIEKTISKTKGQPREPQVYTLPPSREEMTKNQVSLTCLVKGFYPSDIAVEWESNGQPENNYKTTPPMLDSDGSFFLYSKLTVDKSRWQQGNVFSCSVMHEALHNHYTQKSLSLSPGK", "unit-abbreviation": "nM", "Kd": 0.0343}
{"binder": "SIRP-α D1 variant fused to Fc variant, SEQ ID NO: 106 (Fc fusion) EEELQVIQPDKSVLVAAGETATLRCTATSLFPVGPIQWFRGAGPGRELIYNQRQGPFPRVTTVSDLTKRNNMDFSIRIGNITPADAGTYYCVKFRKGSPDDVEFKSGAGTELSVRAKPSVECPPCPAPPVAGPSVFLFPPKPKDTLMISRTPEVTCVVVDVSHEDPEVQFNWYVDGVEVHNAKTKPREEQFASTFRVVSVLTVVHQDWLNGKEYKCKVSNKGLPSSIEKTISKTKGQPREPQVYTLPPSREEMTKNQVSLTCLVKGFYPSDIAVEWESNGQPENNYKTTPPMLDSDGSFFLYSKLTVDKSRWQQGNVFSCSVMHEALHNHYTQKSLSLSPGK", "unit-abbreviation": "nM", "Kd": 0.811}
